System: OC43
Experiment: Drug screening: OC43 nucleoprotein staining in infected A549-mRuby cells
Assay type: cell-based, human beta coronavirus OC43
Details: Betacoronavirus 1, OC43, 96 h, 10 μM drug, MOI 0.3, 4 days; normalized to no-drug controls in the same plate; repeat #1; read-out: OC43_1: % staining of OC43 in screen repeat #1
Where a name gives a salt, the structure may show the parent alone.
activity at 10 µM for assorted compounds
Give the number; % is assumed, so skip it.

The following compounds have reported results that may help.
>  <Compound>
O=C(O[C@H]1CN2CCC1CC2)N1CCc2ccccc2[C@@H]1c1ccccc1

>  <activity at 10 µM / %>
20.4

$$$$
>  <Compound>
CC1(C)O[C@@H]2C[C@H]3[C@@H]4C[C@H](F)C5=CC(=O)C=C[C@]5(C)[C@@]4(F)[C@@H](O)C[C@]3(C)[C@]2(C(=O)CO)O1 [Fluocinolone Acetonide]

>  <activity at 10 µM / %>
38.9

$$$$
>  <Compound>
Clc1ccc2c(c1)CCc1cccnc1C2=C1CCNCC1

>  <activity at 10 µM / %>
13.2

$$$$

The compound listed as "CCCCOc1cc(C(=O)NCCN(CC)CC)c2ccccc2n1" shows activity at 10 µM equal to 18.9

The compound listed as CC(C)c1nc(CN(C)C(=O)N[C@@H](CCN2CCOCC2)C(=O)N[C@H](CC[C@H](Cc2ccccc2)NC(=O)OCc2cncs2)Cc2ccccc2)cs1 [Cobicistat (GS-9350), Cobicistat] shows activity at 10 µM equal to 23

The compound listed as O=C(Nc1ccccc1)OCC(CN1CCCCC1)OC(=O)Nc1ccccc1 (centres unmarked) [Diperodon HCl] shows activity at 10 µM equal to 24.2

The compound listed as CN1CCCCC1CCN1c2ccccc2Sc2ccc([S+](C)[O-])cc21 (centres unmarked) [Mesoridazine Besylate] shows activity at 10 µM equal to 15.6

The compound listed as CNCCCC12CCC(c3ccccc31)c1ccccc12 [Maprotiline HCl] shows activity at 10 µM equal to 27

The compound listed as CN(C)CCC=C1c2ccccc2COc2ccccc21 [Doxepin HCl] shows activity at 10 µM equal to 29.2

The compound listed as "CN1CCN(CCOc2cc(OC3CCOCC3)c3c(Nc4c(Cl)ccc5c4OCO5)ncnc3c2)CC1" shows activity at 10 µM equal to 21.2

The compound listed as COc1ccc(NC(=O)c2ccc(C(=N)N(C)C)cc2)c(C(=O)Nc2ccc(Cl)cn2)c1 [Betrixaban maleate] shows activity at 10 µM equal to 32

The compound listed as "COc1cc2c(Oc3ccc4[nH]c(C)cc4c3F)ncnc2cc1OCCCN1CCCC1" shows activity at 10 µM equal to 17.8

The compound listed as Cc1nc2c([nH]1)CCN(C(=O)c1ccc(NC(=O)c3ccccc3-c3ccccc3)cc1)c1ccccc1-2.O [Conivaptan HCl] shows activity at 10 µM equal to 4.5

The compound listed as CC[C@H]1OC(=O)[C@H](C)[C@@H](O[C@H]2C[C@@](C)(OC)[C@@H](O)[C@H](C)O2)[C@H](C)[C@@H](O[C@@H]2O[C@H](C)C[C@H](N(C)C)[C@H]2O)[C@](C)(O)C[C@@H](C)CN(C)[C@H](C)[C@@H](O)[C@]1(C)O [Azithromycin Dihydrate] shows activity at 10 µM equal to 20.5

The compound listed as "NC(=O)C(c1ccccc1)(c1ccccc1)[C@@H]1CCN(CCc2ccc3c(c2)CCO3)C1" shows activity at 10 µM equal to 14.6

The compound listed as CN(C)CCCC1(c2ccc(F)cc2)OCc2cc(C#N)ccc21 (centres unmarked) shows activity at 10 µM equal to 20.4

The compound listed as CCN(CCCc1ccccc1)CCCc1ccccc1 [Alverine Citrate] shows activity at 10 µM equal to 22.1

The compound listed as COc1cc2nc(N3CCN(C(=O)C4COc5ccccc5O4)CC3)nc(N)c2cc1OC (centres unmarked) [Doxazosin Mesylate] shows activity at 10 µM equal to 50.1

The compound listed as CCC(=O)OCC(=O)[C@@]1(OC(=O)CC)[C@@H](C)C[C@H]2[C@@H]3CCC4=CC(=O)C=C[C@]4(C)[C@@]3(Cl)[C@@H](O)C[C@@]21C [Beclomethasone dipropionate] shows activity at 10 µM equal to 38.3

The compound listed as CNCCCN1c2ccccc2CCc2ccccc21 [Desipramine Hydrochloride] shows activity at 10 µM equal to 20

The compound listed as "COc1cc2c(cc1OC)CN(CCc1ccc(NC(=O)c3cccc4c(=O)c5cccc(OC)c5[nH]c34)cc1)CC2" shows activity at 10 µM equal to 24.4

The compound listed as CN(C)CCCN1c2ccccc2Sc2ccccc21 [Promazine hydrochloride] shows activity at 10 µM equal to 23.4

The compound listed as C=C[C@H]1C[N@@]2CC[C@H]1C[C@@H]2[C@@H](O)c1ccnc2ccc(OC)cc12 [Quinidine sulfate] shows activity at 10 µM equal to 25.1
